Recorded values, source the supplement of paper PMC6555819.

The following sequences are shown together with reported PBM binding z-score values.
Test system: LXRb:RXRa (NR concentration 270 nM, RXRa partner concentration 90 nM)
Protocol description: PBM binding z-score (relative to random genomic background probes); higher = stronger binding; sequences stand for … in GC…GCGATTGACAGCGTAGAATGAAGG
Form field (numeric): enter value without unit.

What value of PBM binding z-score has been recorded for this entry: `TCGAGTAGGTTAGTCGCGGCATTCAGCCAACATA`
-0.576

What value of PBM binding z-score has been recorded for this entry: `ACACCAAGGTGATCGTGAGGTCGTTGATACTAAC`
1.38

What value of PBM binding z-score has been recorded for this entry: `TCTAGTTGGTCAGGGAGGTCACACACGACGGGTA`
3.24

What value of PBM binding z-score has been recorded for this entry: `GCTGCTAGGTCAGGTTGGTCAGCTCACGGGTACG`
0.696
